Exercise: state measured cAMP activity index for each of the compounds provided.
No unit in the answer, please; the number alone is enough.

Here COc1ccc2cccc(CCNC(=O)CI)c2c1 was tested on Melatonin receptor (Ovis aries), and its cAMP activity index came to 1

Here C/C=C/C(=O)NCCc1cccc2ccc(OC)cc12 was tested on Melatonin receptor (Ovis aries), and its cAMP activity index came to 1

Here CCC(=O)NCCc1cccc2ccc(OC)cc12 was tested on Melatonin receptor (Ovis aries), and its cAMP activity index came to 1.02

Here COc1ccc2[nH]cc(CCNC(=O)C3CCC3)c2c1 was tested on Melatonin receptor (Ovis aries), and its cAMP activity index came to 0.98

Here COc1ccc2cccc(CCNC(=O)C(F)(F)F)c2c1 was tested on Melatonin receptor (Ovis aries), and its cAMP activity index came to 0.99

Here COc1ccc2cccc(CCNC=O)c2c1 was tested on Melatonin receptor (Ovis aries), and its cAMP activity index came to 0.98

Here COc1ccc2ncn(CCNC(C)=O)c2c1 was tested on Melatonin receptor (Ovis aries), and its cAMP activity index came to 0.52

Here COc1ccc2cccc(CCNC(=O)C3CCCC3)c2c1 was tested on Melatonin receptor (Ovis aries), and its cAMP activity index came to 0.48

Here COc1cc2c(CCNC(=O)C3CC3)c[nH]c2cc1F was tested on Melatonin receptor (Ovis aries), and its cAMP activity index came to 1

Here COc1ccc2[nH]cc(CCNC(=O)C(F)(F)F)c2c1 was tested on Melatonin receptor (Ovis aries), and its cAMP activity index came to 1.05
